assay: NCI Yeast Anticancer Drug Screen. Data for the mlh1 rad18 strain (AID 175); details: S. cerevisiae mlh1 rad18 strain growth inhibition; at 50.0 µM; hits give high values
Compounds without any hit were thinned out: in the full panel of roughly 79,000, 15% have a hit.
recorded endpoint: growth inhibition (%)
Number in %, nothing else.

{"molecule": "CCCCNCCOC(=O)c1ccc(N)cc1", "growth inhibition (%)": 12.1}
{"molecule": "S=C(NNC(=S)Nc1ccccc1Cl)NNc1ccccc1", "growth inhibition (%)": 88.9}
{"molecule": "Cc1c2ccccc2nc(CS(=O)c2ccccc2)[n+]1[O-] (stereo unspecified)", "growth inhibition (%)": 20.2}
{"molecule": "CC1CCC2c3c([nH]c4ccccc34)C3C(=O)N(C4CCCCC4)C(=O)C3C2C1 (stereo unspecified)", "growth inhibition (%)": 2.25}
{"molecule": "NC(=O)CCBr", "growth inhibition (%)": -29.1}
{"molecule": "O=P(O)(c1ccccc1Br)c1ccccc1Br", "growth inhibition (%)": 20.2}

stdin: Requested field: growth inhibition. Item: COc1ccc(C(CC(=O)O)c2ccc(OC)c(OC)c2)c(OC)c1 (stereo unspecified)
stdout: 5.15

stdin: Requested field: growth inhibition. Item: `CCCCCCCCCCCCCCCC[Si](Cl)(Cl)Cl`
stdout: 10.1

stdin: For the molecule shown here, O=[N+]([O-])c1ccc(C2=Nc3ccccc3S(=O)C(c3ccccc3)C2)cc1 (stereo unspecified) , give the reported growth inhibition.
stdout: 20.6

stdin: Look at this molecule and give its reported growth inhibition. `Cn1c(=O)c(-c2ccccc2)c(O)c2ccccc21`
stdout: -20.4

stdin: Item under review: CCCC(=O)OCC(O)CO (stereo unspecified) . Reported growth inhibition?
stdout: 18.6

stdin: Name the reported growth inhibition value associated with the molecule `O=C(O)c1cccc(C2=CCCC2)c1`
stdout: 15.7

stdin: For the molecule shown here, `C=CCC1(C(=O)NC)c2ccccc2-c2ccccc21` , give the reported growth inhibition.
stdout: -38.1

stdin: Field request: growth inhibition | item: CC(C)(C)C1CCC(C2CC(C(C)(C)C)CCC2=O)CC1 (stereo unspecified)
stdout: 27.8

stdin: Fill blank: measured growth inhibition of the molecule `COc1cc(NC(C)=O)c2nccnc2c1` is ____.
stdout: -14.2

stdin: Fill blank: measured growth inhibition of the molecule CCN(CC)C1CCC(C2c3cc4c(cc3OC(N3CCOCC3)C2C)OCO4)CC1 (stereo unspecified) is ____.
stdout: -22.4

stdin: I have this molecule here, `c1ccc(P(CCNCCP(c2ccccc2)c2ccccc2)c2ccccc2)cc1` , and I need its recorded growth inhibition.
stdout: 6.75

stdin: Suppose we examine the molecule CC1CCC2N(C1)CC1C3(O)CC4(O)C(CCC5C(=O)C(O)CCC54C)C3(O)CC(O)C1(O)C2(C)O (stereo unspecified) ; what growth inhibition value has been reported?
stdout: -7.7

stdin: Can you look up the measured growth inhibition of `CC(=O)Nc1ccc(OC2=CCN(C)CC2)cc1` for me?
stdout: -64.8

stdin: // returns reported growth inhibition for input CC(=O)OC1CCC2(C)OC(=O)CC2C1 (stereo unspecified)
stdout: 1.4

stdin: Need growth inhibition, item `O=C(Cn1c(-c2ccccc2)cc2ccccc21)N1CCOCC1`
stdout: -28.1

stdin: For the molecule `O=C(O)C1(C(=O)O)Cc2ccccc2C1` , what growth inhibition is on record?
stdout: 14.8

stdin: Item `O=C(Nc1ccccc1Cl)Nc1ccccc1Br` has what recorded growth inhibition?
stdout: -17.3

stdin: Recorded growth inhibition of `CC(=O)NNc1nc(C)c(C(=O)/C=C/c2ccc(/C=C/C(=O)c3sc(NNC(C)=O)nc3C)cc2)s1` , please.
stdout: -35.1

stdin: Using the record for `Cc1ccccc1C(c1ccccc1C)c1ccccc1C` , report its growth inhibition.
stdout: -19.6

stdin: Name the reported growth inhibition value associated with the molecule CCOC(=O)C(O)C(O)C(O)C(O)C(=O)OCC (stereo unspecified)
stdout: -8.75

stdin: Please report the recorded growth inhibition for `CNCC(O)(C(=O)O)C(=O)O` .
stdout: -7.95

====

experiment: NCI Yeast Anticancer Drug Screen. Data for the mec2-1 strain (AID 157); settings: S. cerevisiae mec2-1 strain, at 50.0 µM, hits give high values
Compounds without any hit were thinned out: in the full panel of roughly 79,000, 15% have a hit.
Overview of recorded growth inhibition for various compounds
// note: answer is a bare numeric in %

Example results:
{"compound": "Cc1ccc(C(=O)Nc2ccc(S(=O)(=O)O)c3cc(S(=O)(=O)O)cc(S(=O)(=O)O)c23)cc1N", "measured result": -7.05}
{"compound": "CC(O)c1ccccc1Br (stereo unspecified)", "measured result": -15.1}
{"compound": "CCOC(=O)C1=C(C(=O)c2ccc(C)cc2)C(c2c(Cl)cccc2Cl)C(C(=O)c2ccc(C)cc2)=C(C(=O)OCC)N1", "measured result": 21.1}
{"compound": "CC(CC(O)CCCN(C)C)CC(C)(C)C (stereo unspecified)", "measured result": 39.8}
{"compound": "CCN(CC)CCCC(C)Nc1nncc2ccccc12 (stereo unspecified)", "measured result": -2.1}

# evaluate next
stdin: Need growth inhibition of CC1=C(C(=O)Nc2cc(F)c(F)cc2F)C(c2cccc([N+](=O)[O-])c2)C(C(=O)Nc2ccccc2C(F)(F)F)=C(C)N1 (stereo unspecified) , thanks.
stdout: 21.8

====

test: NCI Yeast Anticancer Drug Screen. Data for the sgs1 mgt1 strain (AID 161);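 note: 0% = growth of cultures given vehicle only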; conditions: S. cerevisiae sgs1 mgt1 strain, at 50.0 µM, hits give high values
The panel holds about 79,000 compounds, 15% with a hit somewhere; the sample as a whole holds those more often.
The reader will find reported growth inhibition values listed item by item below.
The answer is to be given in %; state only the numeric part.

{"molecule": "COC(=O)CC1=CCCc2ccccc21", "growth inhibition [%]": -2.85}
{"molecule": "CON(C)c1nc2ccccc2o1", "growth inhibition [%]": -9}
{"molecule": "CCN(CC)Cc1cc(Nc2nc(/C=C/c3ccccc3)nc3ccccc23)ccc1O", "growth inhibition [%]": -3.25}
{"molecule": "Nc1cc(=O)n(C2CC(O)C(CO)O2)cn1 (stereo unspecified)", "growth inhibition [%]": 11.5}
{"molecule": "Cc1cnc(Sc2ncccc2[N+](=O)[O-])nc1", "growth inhibition [%]": 22.8}

stdin: So what's the measured growth inhibition for this one? `Cc1nc(N)[nH]c(=O)c1Cc1ccc(Cl)cc1Cl`
stdout: -5.7

stdin: # input molecule: CCCCN(CCCC)CC(O)c1cc(Cc2ccccc2)nc2c(Cl)cc(Cl)cc12 (stereo unspecified) ; wanted: its growth inhibition
stdout: 96.8

stdin: Look up growth inhibition: `N#CCCC(=O)c1ccc[nH]1`
stdout: 2.2

====

assay: NCI Yeast Anticancer Drug Screen. Data for the bub3 strain (AID 167); conditions: S. cerevisiae bub3 mutant strain, at 50.0 µM
This is part of a sample that, as a whole, favours compounds with a hit. Of some 79,000 tested, about 15% had one in any assay. Calls of active or inactive are those of the source. Rule as the data show it: active = growth inhibition above about 70%; inactive = the rest.
Hello, when you answer, please use one of the following outcomes: 1 (yes) for active, 0 (no) for inactive

Please review the following examples before continuing.
{"compound": "CCCCC/C(=N\\NC(N)=O)C1=CCCCC1", "label class": "0 (no)"}
{"compound": "CCCCN1C(=O)c2ccccc2C1=O", "label class": "0 (no)"}
{"compound": "CC(=O)c1cccc2ccccc12", "label class": "0 (no)"}
{"compound": "O=S1(=O)C2C=CC1CCCC2", "label class": "0 (no)"}

stdin: // outcome(item) with item = `CCOC(=O)CSc1cc(C)[o+]c(C)c1`
stdout: 0 (no)

stdin: Which outcome was entered for the compound CCN(CC)CC1c2ccccc2C(CNc2ccccc2)N1C (configuration not stated) in this test?
stdout: 0 (no)

stdin: So what was the verdict on O=C1CSC(c2ccccc2Br)N1c1nncs1 (configuration not stated) in this test?
stdout: 0 (no)

stdin: In this assay, the call recorded for `O=[N+]([O-])c1ccc(N/N=C2/CC3=C2CCCCCCCCCC3)c([N+](=O)[O-])c1` was what?
stdout: 0 (no)

stdin: State the result this test recorded for COC1CCC2C(C1)C(C1CCCCC1)C1CCCCC1C2C1CCCCC1 (configuration not stated) .
stdout: 0 (no)

stdin: Name the outcome recorded for `CCc1cc(CN2CCN(CCO)CC2)c(O)c(CN2CCN(CCO)CC2)c1` in the assay.
stdout: 0 (no)

stdin: Entry CCOC1(C)Oc2cc3c(cc2C(c2cc(OC)c(OC)c(OC)c2)C1C)OCO3 (configuration not stated) : call = ?
stdout: 0 (no)

====

assay: NCI Yeast Anticancer Drug Screen. Data for the sgs1 mgt1 strain (AID 161);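 note: 0% = growth of cultures given vehicle only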; conditions: S. cerevisiae sgs1 mgt1 strain, at 50.0 µM, hits give high values
The panel holds about 79,000 compounds, 15% with a hit somewhere; the sample as a whole holds those more often. Where a SMILES comes first, the peptide text is derived from it. The star is where a group is joined. Boc = CC(C)(C)OC(=O)*
Listed next: entries and their corresponding growth inhibition.
Provide the reading as a plain figure in %.

Reference set (3 entries):
{"molecule": "COc1cc(/C=C(/C#N)C(N)=O)cc(OC)c1OC", "unit symbol": "%", "measured result": 18.9}
{"molecule": "COC(=O)C(Cc1ccccc1)NC(=O)C(Cc1ccccc1)NC(=O)OC(C)(C)C (stereo not drawn) (Boc-Phe-Phe-OMe; configuration not given here)", "unit symbol": "%", "measured result": -18.9}
{"molecule": "CCCCN(CCCC)CCC(O)c1cc(-c2ccc(Cl)c(Cl)c2)nc2c(Cl)cc(Cl)cc12 (centres undefined)", "unit symbol": "%", "measured result": 6.85}

Next item in the queue.
stdin: For Cc1ccc(C)c(NC(=O)C(=O)C(C2C(C)CC(=O)C2CC(=O)O)[N+](=O)[O-])c1 (centres undefined) , what is its reported growth inhibition?
stdout: -8.05
